Cited source for all entries: the supplement of paper PMC10307832

Assignment: determine reported relative viability for the given compounds.
# Tested on: ChaGo-K-1
# methodNotes: relative viability (nuclei count vs DMSO), 5 days (fraction); higher = more cells survive
# assayConditions: first compound 15.81 µM
Numbers only.

# count of solved cases: 4
compound	assayMetric	observedResult
O=C(O)CCCCC(CCSCc1ccccc1)SCc1ccccc1 (stereo not given) [CPI-613] + CC(C)C[C@H](NC(=O)[C@H](Cc1ccccc1)NC(=O)c1cnccn1)B(O)O [Bortezomib] (partner 0.002 µM)	relative viability	0.855
O=C(O)CCCCC(CCSCc1ccccc1)SCc1ccccc1 (stereo not given) [CPI-613] + COc1cccc2cc(-c3nc([C@H]4CC[C@H](C(=O)O)CC4)n4ncnc(N)c34)[nH]c12 [OSI-027] (partner 0.5 µM)	relative viability	0.509
O=C(O)CCCCC(CCSCc1ccccc1)SCc1ccccc1 (stereo not given) [CPI-613] + NC(=O)Nc1cc(-c2cccc(F)c2)sc1C(=O)N[C@H]1CCCNC1 [AZD7762] (partner 0.2 µM)	relative viability	0.778
O=C(O)CCCCC(CCSCc1ccccc1)SCc1ccccc1 (stereo not given) [CPI-613] + Nc1ncn([C@H]2C[C@H](O)[C@@H](CO)O2)c(=O)n1 [Decitabine] (partner 2 µM)	relative viability	0.517

# context switch: different compound, same relative viability
Prompt: Any idea what relative viability was measured for O=C(O)CCCCC(CCSCc1ccccc1)SCc1ccccc1 (stereo not given) [CPI-613] + O=C(CCCCCCC(=O)Nc1ccccc1)NO [Vorinostat] (partner 1 µM) ?
Completion: 0.685
